# target.desc: medaka T1r2a/T1r3LBD (Oryzias latipes, UniProt A0A173M094+A0A173M0G2)
# Sequence (A0A173M094 entry or part of it): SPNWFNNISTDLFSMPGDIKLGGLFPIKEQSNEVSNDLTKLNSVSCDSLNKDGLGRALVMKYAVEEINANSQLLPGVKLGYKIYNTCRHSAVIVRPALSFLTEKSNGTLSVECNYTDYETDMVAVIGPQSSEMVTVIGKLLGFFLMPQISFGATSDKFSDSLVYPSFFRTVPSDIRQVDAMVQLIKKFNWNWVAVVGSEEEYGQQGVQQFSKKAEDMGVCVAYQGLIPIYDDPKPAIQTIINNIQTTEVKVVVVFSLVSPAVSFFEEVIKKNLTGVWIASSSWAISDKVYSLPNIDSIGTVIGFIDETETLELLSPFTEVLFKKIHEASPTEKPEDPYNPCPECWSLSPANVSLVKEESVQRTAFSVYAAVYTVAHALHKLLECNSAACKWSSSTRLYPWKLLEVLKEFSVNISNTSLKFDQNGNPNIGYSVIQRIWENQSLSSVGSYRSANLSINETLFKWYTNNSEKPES
# Sequence (A0A173M0G2 entry or part of it): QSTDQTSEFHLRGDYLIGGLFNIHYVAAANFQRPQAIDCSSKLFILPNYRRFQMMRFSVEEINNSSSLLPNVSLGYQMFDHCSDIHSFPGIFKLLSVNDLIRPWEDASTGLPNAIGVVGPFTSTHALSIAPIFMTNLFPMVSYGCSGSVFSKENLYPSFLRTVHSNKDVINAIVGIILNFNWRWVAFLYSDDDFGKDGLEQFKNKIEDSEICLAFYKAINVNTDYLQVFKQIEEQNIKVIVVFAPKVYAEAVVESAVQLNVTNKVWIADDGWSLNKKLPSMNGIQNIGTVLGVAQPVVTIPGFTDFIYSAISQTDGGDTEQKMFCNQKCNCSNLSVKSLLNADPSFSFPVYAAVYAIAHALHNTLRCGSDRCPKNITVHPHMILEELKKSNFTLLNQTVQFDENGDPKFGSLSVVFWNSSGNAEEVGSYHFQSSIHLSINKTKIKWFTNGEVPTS
# assay.remarks: Differential scanning fluorimetry (DSF) thermal shift ligand-binding assay
# Parameters: species or system O. latipes
# assay.context: Tm at 8 or 9 ligand concentrations fitted to Eq 1 (Schellman); fitted parameter ± s.e.; read-out: DSF Kd-app
I'd be grateful if you could share measured pKd for these entries.
One number for each entry, as −log10 of the molar value.

compound="N[C@@H](CCC(=O)O)C(=O)O [L-Glu, glutamate]" observable=pKd measured_result=3.37
compound="C[C@H](N)C(=O)O [L-Ala, L-alanine]" observable=pKd measured_result=4.27
compound="NCC(=O)O [Gly, glycine]" observable=pKd measured_result=2.45

Task item: Output pKd of NC(=O)CC[C@H](N)C(=O)O [L-Gln, L-glutamine]
Reply: 4.51

----------
So I've got a bunch of compounds here, and I need their potency estimated from few doses values.
# target.desc: medaka T1r2a/T1r3LBD (Oryzias latipes, UniProt A0A173M094+A0A173M0G2)
# assay.remarks: Differential scanning fluorimetry (DSF) thermal shift ligand-binding assay
# Set-up: species or system O. latipes
# assay.context: from ΔTm at 0.1 mM via Eq 1, T0 326.1 K, ΔH0 72.1 kcal mol-1; read-out: Kd-app estimated at a single ligand concentration
Give bare numbers, in µM.

compound="CSCC[C@H](N)C(=O)O [L-Met]" measured_result=604

Go through the items and report each one's potency estimated from few doses.
1. CC(C)C[C@H](N)C(=O)O [L-Leu]
2. N[C@@H](Cc1ccccc1)C(=O)O [L-Phe]
3. N[C@@H](CCC(=O)O)C(=O)O [L-Glu, glutamate]
4. CC(C)[C@H](N)C(=O)O [L-Val]
5. NC(=O)C[C@H](N)C(=O)O [L-Asn]

Reply:
3490
918
488
2630
2400

Task item: Recall and state the measured potency estimated from few doses for NC(=O)CC[C@H](N)C(=O)O [L-Gln, L-glutamine] .
Reply: 14.1

----------
Kindly state ΔTm for each of the entries shown.
# target.desc: medaka T1r2a/T1r3LBD (Oryzias latipes, UniProt A0A173M094+A0A173M0G2)
# assay.remarks: Differential scanning fluorimetry (DSF) thermal shift ligand-binding assay
# Design: species or system O. latipes
# assay.context: 10 mM amino acid; average ± s.e.m., n = 4
Form entry: enter the amount, then its unit.

compound=C[C@H](N)C(=O)O target_desc="medaka T1r2a/T1r3LBD (Oryzias latipes, UniProt A0A173M094+A0A173M0G2)" observable=ΔTm measured_result="11.1 ± 0.02 K"

# batch: return ΔTm for each of the 3 compounds below
1. CC(C)C[C@H](N)C(=O)O
2. CSCC[C@H](N)C(=O)O
3. CC[C@H](C)[C@H](N)C(=O)O

Reply:
1. 6.91 ± 0.05 K
2. 8.85 ± 0.06 K
3. 2.89 ± 2.40 K

----------
# target.desc: T1r2a/T1r3 full-length receptor (Oryzias latipes, UniProt A0A173M094+A0A173M0G2)
# Sequence (A0A173M0G2 entry or part of it): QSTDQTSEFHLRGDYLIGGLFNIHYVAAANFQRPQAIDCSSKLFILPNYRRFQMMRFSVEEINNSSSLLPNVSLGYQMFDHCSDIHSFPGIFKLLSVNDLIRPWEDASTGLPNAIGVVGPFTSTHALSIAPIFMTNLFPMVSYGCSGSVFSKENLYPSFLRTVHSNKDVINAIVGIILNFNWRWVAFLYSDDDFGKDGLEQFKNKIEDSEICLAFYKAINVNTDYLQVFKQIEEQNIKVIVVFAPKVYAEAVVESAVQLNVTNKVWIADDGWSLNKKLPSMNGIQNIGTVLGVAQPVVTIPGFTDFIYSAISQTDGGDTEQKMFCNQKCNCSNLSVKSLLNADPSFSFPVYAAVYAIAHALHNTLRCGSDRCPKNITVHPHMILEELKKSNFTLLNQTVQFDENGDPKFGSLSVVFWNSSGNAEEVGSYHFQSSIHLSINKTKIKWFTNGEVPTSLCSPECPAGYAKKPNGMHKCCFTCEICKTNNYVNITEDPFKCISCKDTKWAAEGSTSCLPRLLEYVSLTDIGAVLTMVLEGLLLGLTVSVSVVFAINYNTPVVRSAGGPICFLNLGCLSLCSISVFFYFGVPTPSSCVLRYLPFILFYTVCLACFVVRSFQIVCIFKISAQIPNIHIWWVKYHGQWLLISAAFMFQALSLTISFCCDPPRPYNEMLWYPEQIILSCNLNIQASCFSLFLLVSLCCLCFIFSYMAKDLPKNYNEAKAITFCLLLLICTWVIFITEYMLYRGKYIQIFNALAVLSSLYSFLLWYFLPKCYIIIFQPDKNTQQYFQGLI
# Sequence (A0A173M094 entry or part of it): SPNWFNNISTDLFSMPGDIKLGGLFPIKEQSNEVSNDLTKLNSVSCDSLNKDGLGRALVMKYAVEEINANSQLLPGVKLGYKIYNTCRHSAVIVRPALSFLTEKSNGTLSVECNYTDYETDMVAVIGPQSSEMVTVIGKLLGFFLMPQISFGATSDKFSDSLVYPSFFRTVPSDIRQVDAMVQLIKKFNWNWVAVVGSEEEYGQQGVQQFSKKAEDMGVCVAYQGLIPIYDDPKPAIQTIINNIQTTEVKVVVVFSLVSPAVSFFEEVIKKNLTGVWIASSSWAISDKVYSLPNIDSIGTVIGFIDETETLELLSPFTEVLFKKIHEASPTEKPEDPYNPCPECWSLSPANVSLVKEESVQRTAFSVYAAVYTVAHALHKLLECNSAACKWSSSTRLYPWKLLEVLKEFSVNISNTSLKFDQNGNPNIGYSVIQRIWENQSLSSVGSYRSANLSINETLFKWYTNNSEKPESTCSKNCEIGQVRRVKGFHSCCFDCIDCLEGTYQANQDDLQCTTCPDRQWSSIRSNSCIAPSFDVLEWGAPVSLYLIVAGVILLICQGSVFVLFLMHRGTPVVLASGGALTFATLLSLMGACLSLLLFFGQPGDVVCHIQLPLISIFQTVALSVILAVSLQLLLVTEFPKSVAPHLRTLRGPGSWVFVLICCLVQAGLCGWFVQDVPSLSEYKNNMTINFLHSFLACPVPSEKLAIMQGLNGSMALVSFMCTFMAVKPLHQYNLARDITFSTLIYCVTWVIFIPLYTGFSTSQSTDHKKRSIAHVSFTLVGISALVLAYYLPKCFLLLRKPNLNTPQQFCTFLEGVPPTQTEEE
# assay.remarks: Ca2+-flux receptor response assay in Flip-In 293 cells stably expressing full-length T1r2a, T1r3 and Gα16-gust44
# Format: cell-based, O. latipes
# assay.context: 10 mM amino acid; average ± s.e.m., n = 6
In plain terms, low ΔRFU, meaning strictly below 30, gives Y, and everything else gives N.

compound=O=C(O)[C@@H]1CCCN1 target_desc="T1r2a/T1r3 full-length receptor (Oryzias latipes, UniProt A0A173M094+A0A173M0G2)" category_label=N
compound=C[C@@H](O)[C@H](N)C(=O)O target_desc="T1r2a/T1r3 full-length receptor (Oryzias latipes, UniProt A0A173M094+A0A173M0G2)" category_label=Y
compound=NC(=O)CC[C@H](N)C(=O)O target_desc="T1r2a/T1r3 full-length receptor (Oryzias latipes, UniProt A0A173M094+A0A173M0G2)" category_label=N
compound=N[C@@H](CO)C(=O)O target_desc="T1r2a/T1r3 full-length receptor (Oryzias latipes, UniProt A0A173M094+A0A173M0G2)" category_label=N
compound="N[C@@H](CC(=O)O)C(=O)O [L-Asp, L-aspartate]" target_desc="T1r2a/T1r3 full-length receptor (Oryzias latipes, UniProt A0A173M094+A0A173M0G2)" category_label=Y
compound=NCC(=O)O target_desc="T1r2a/T1r3 full-length receptor (Oryzias latipes, UniProt A0A173M094+A0A173M0G2)" category_label=N
compound=C[C@H](N)C(=O)O target_desc="T1r2a/T1r3 full-length receptor (Oryzias latipes, UniProt A0A173M094+A0A173M0G2)" category_label=N
compound=N[C@@H](Cc1c[nH]cn1)C(=O)O target_desc="T1r2a/T1r3 full-length receptor (Oryzias latipes, UniProt A0A173M094+A0A173M0G2)" category_label=Y
compound=C[C@@H](N)C(=O)O target_desc="T1r2a/T1r3 full-length receptor (Oryzias latipes, UniProt A0A173M094+A0A173M0G2)" category_label=Y
compound=CC(C)[C@H](N)C(=O)O target_desc="T1r2a/T1r3 full-length receptor (Oryzias latipes, UniProt A0A173M094+A0A173M0G2)" category_label=N

Task item: Would you kindly verify if ΔRFU of NC(=O)C[C@H](N)C(=O)O is strictly less than 30?
Reply: Y

Task item: Answer whether the compound N=C(N)NCCC[C@H](N)C(=O)O has ΔRFU strictly less than 30
Reply: N

Task item: Please state whether ΔRFU is below 30 for CC(C)C[C@H](N)C(=O)O
Reply: Y

Task item: Field: below-cutoff. Rule: recorded ΔRFU strictly less than 30. Subject: CSCC[C@H](N)C(=O)O
Reply: Y

Task item: Field: below-cutoff. Rule: recorded ΔRFU strictly less than 30. Subject: NCCCC[C@H](N)C(=O)O
Reply: Y

Task item: is_below(ΔRFU, 30) for N[C@@H](Cc1ccccc1)C(=O)O ?
Reply: Y
